Test system: Human rhinovirus A protease (Human rhinovirus sp.)
Sequence (whole entry): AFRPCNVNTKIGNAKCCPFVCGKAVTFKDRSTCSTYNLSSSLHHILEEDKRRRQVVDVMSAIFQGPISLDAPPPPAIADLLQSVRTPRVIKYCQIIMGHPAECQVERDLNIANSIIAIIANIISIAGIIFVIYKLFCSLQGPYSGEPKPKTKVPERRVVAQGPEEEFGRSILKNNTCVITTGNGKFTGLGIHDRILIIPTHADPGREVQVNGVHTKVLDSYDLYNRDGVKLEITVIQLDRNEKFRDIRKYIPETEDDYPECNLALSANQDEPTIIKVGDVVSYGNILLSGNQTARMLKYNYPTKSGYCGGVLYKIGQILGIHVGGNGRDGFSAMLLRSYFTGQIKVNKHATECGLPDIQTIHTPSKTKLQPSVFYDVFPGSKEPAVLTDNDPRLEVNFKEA
Method: Catalytic rate constant (Kobs/[I]) evaluated against human rhinovirus (HRV) serotype 14 3C Protease (3CP)
Measurement setup: Human rhinovirus B (HRV-14)
// reported K obs / 1 per item
Form entry: value (M⁻¹ s⁻¹) — number only.

Here is how some compounds turned out for K obs / 1.
CC(C)C[C@H](NC(=O)OCc1ccccc1)C(=O)N[C@@H](Cc1ccccc1)C(=O)N[C@H](/C=C/[N+](=O)[O-])CCC(N)=O ... 500000
CC(C)C[C@H](NC(=O)OCc1ccccc1)C(=O)N[C@@H](Cc1ccccc1)C(=O)N[C@H](/C=C/C(=O)NC1CCCC1)CCC(N)=O ... 250
CC(=O)/C=C/[C@H](CCC(N)=O)NC(=O)[C@H](Cc1ccccc1)NC(=O)[C@H](CC(C)C)NC(=O)OCc1ccccc1 ... 54000

input: # K obs / 1 lookup, item CC(C)C[C@H](NC(=O)OCc1ccccc1)C(=O)N[C@@H](Cc1ccccc1)C(=O)N[C@H](/C=C/C(=O)N1CCc2ccccc21)CCC(N)=O
output: 6500

input: Same thing, different compound: CC(C)C[C@H](NC(=O)OCc1ccccc1)C(=O)N[C@@H](Cc1ccccc1)C(=O)N[C@H](/C=C/C(=O)N1CCC(O)C1)CCC(N)=O (stereo partly drawn)
output: 1200

input: Same thing, different compound: CC(C)C[C@H](NC(=O)OCc1ccccc1)C(=O)N[C@@H](Cc1ccccc1)C(=O)N[C@H](/C=C/C(=O)N1CCCCO1)CCC(N)=O
output: 19000

input: Same thing, different compound: CC(C)C[C@H](NC(=O)OCc1ccccc1)C(=O)N[C@@H](Cc1ccccc1)C(=O)N[C@H](/C=C/C(=O)C(C)(C)C)CCC(N)=O
output: 15000

###

Test system: Human rhinovirus A protease (Human rhinovirus sp.)
Sequence (whole entry): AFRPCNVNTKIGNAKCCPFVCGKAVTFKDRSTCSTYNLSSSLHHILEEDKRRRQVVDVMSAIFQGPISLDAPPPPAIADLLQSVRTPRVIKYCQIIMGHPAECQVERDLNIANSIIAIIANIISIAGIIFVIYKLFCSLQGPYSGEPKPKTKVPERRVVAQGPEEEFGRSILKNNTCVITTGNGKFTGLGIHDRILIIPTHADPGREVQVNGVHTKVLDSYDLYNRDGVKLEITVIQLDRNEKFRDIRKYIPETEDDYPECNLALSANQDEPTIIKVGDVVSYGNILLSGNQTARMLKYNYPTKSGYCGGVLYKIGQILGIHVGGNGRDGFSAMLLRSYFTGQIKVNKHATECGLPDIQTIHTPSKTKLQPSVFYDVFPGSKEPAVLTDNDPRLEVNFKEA
Method: Catalytic rate constant (Kobs/[I]) evaluated against human rhinovirus (HRV) serotype 14 3C Protease (3CP)
Measurement setup: Human rhinovirus B (HRV-14)
Just so you know, the groups by K obs / 1 go like this: lower range: < 800 M⁻¹ s⁻¹; middle range: ≥ 800 M⁻¹ s⁻¹ and < 50000 M⁻¹ s⁻¹; upper range: ≥ 50000 M⁻¹ s⁻¹

CC(C)C[C@H](NC(=O)OCc1ccccc1)C(=O)N[C@@H](Cc1ccccc1)C(=O)N[C@H](/C=C/C(=O)c1ccccc1)CCC(N)=O ... upper range
CCOP(=O)(/C=C/[C@H](CCC(N)=O)NC(=O)[C@H](Cc1ccccc1)NC(=O)[C@H](CC(C)C)NC(=O)OCc1ccccc1)OCC ... lower range
CC(C)C[C@H](NC(=O)OCc1ccccc1)C(=O)N[C@@H](Cc1ccccc1)C(=O)N[C@H](/C=C/C(=O)c1ccc(C#N)cc1)CCC(N)=O ... upper range
CC(C)C[C@H](NC(=O)OCc1ccccc1)C(=O)N[C@@H](Cc1ccccc1)C(=O)N[C@H](/C=C/C(=O)N1CCN(C)C1=O)CCC(N)=O ... upper range
CC(C)C[C@H](NC(=O)OCc1ccccc1)C(=O)N[C@@H](Cc1ccccc1)C(=O)N[C@H](/C=C/C(=O)N1CCCC1=O)CCC(N)=O ... upper range
CC(C)C[C@H](NC(=O)OCc1ccccc1)C(=O)N[C@@H](Cc1ccccc1)C(=O)N[C@H](/C=C/C(=O)N1CCc2ccc(S(C)(=O)=O)cc21)CCC(N)=O ... middle range
CC(C)C[C@H](NC(=O)OCc1ccccc1)C(=O)N[C@@H](Cc1ccccc1)C(=O)N[C@H](/C=C/C(=O)n1ccc2ccccc21)CCC(N)=O ... upper range
CC(C)C[C@H](NC(=O)OCc1ccccc1)C(=O)N[C@@H](Cc1ccccc1)C(=O)N[C@H](/C=C/c1cocn1)CCC(N)=O ... lower range

input: Which class holds CCNC(=O)/C=C/[C@H](CCC(N)=O)NC(=O)[C@H](Cc1ccccc1)NC(=O)[C@H](CC(C)C)NC(=O)OCc1ccccc1 ?
output: lower range

input: Same thing, different compound: CC(C)C[C@H](NC(=O)OCc1ccccc1)C(=O)N[C@@H](Cc1ccccc1)C(=O)N[C@H](/C=C/C(=O)N1CCc2ccc(S(=O)(=O)N3CCCC3)cc21)CCC(N)=O
output: middle range

input: Same thing, different compound: CC(C)C[C@H](NC(=O)OCc1ccccc1)C(=O)N[C@@H](Cc1ccccc1)C(=O)N[C@H](/C=C/S(=O)(=O)c1ccccc1)CCC(N)=O
output: lower range

input: Same thing, different compound: CC(C)C[C@H](NC(=O)OCc1ccccc1)C(=O)N[C@@H](Cc1ccccc1)C(=O)N[C@H](/C=C/C(=O)N(C)C)CCC(N)=O
output: middle range

###

Test system: HeLa
Method: Formazan production in HRV-14 virus infected cells
Assay type: functional, cell-based
Measurement setup: Homo sapiens
// reported log10 of EC50 per item
Recall that a logarithmic scale is used here: each number is log10 of EC50 in µM.

COC(=O)N1CC/C(=C\[C@H](CCC(N)=O)NC(=O)[C@H](Cc2ccccc2)NC(=O)[C@H](CC(C)C)NC(=O)OCc2ccccc2)C1=O ... 1.45

Next molecule, please.
input: # log10 of EC50 lookup, item CC(C)C[C@H](NC(=O)OCc1ccccc1)C(=O)N[C@@H](Cc1ccccc1)C(=O)N[C@H](/C=C/C(=O)N1CCCC1=O)CCC(N)=O
output: -0.05

###

Test system: HeLa
Method: Formazan production in HRV-14 virus infected cells
Type: functional, cell-based
Measurement setup: Homo sapiens
pEC50: −log10 of the molar value.
Property: pEC50

CCN(CC)c1ccc(C(=O)/C=C/[C@H](CCC(N)=O)NC(=O)[C@H](Cc2ccccc2)NC(=O)[C@H](CC(C)C)NC(=O)OCc2ccccc2)cc1 ... < 4.60
CC(C)C[C@H](NC(=O)OCc1ccccc1)C(=O)N[C@@H](Cc1ccccc1)C(=O)N[C@H](/C=C/C(=O)O)CCC(N)=O ... < 4.00
CC(C)C[C@H](NC(=O)OCc1ccccc1)C(=O)N[C@@H](Cc1ccccc1)C(=O)N[C@H](/C=C/C(=O)Nc1ccccc1)CCC(N)=O ... < 3.49

input: # pEC50 lookup, item CC(C)C[C@H](NC(=O)OCc1ccccc1)C(=O)N[C@@H](Cc1ccccc1)C(=O)N[C@H](/C=C/C(=O)N1CCc2ccc([N+](=O)[O-])cc21)CCC(N)=O
output: < 3.49

###

Test system: HeLa
Method: Concentration of compound that decreased the percentage of formazan production in treated HRV-14 virus infected cells to that produced in uninfected cells
Type: functional
Measurement setup: Homo sapiens
Property: CC50

CC(C)C[C@H](NC(=O)OCc1ccccc1)C(=O)N[C@@H](Cc1ccccc1)C(=O)N[C@H](/C=C/C(=O)N1CCCc2ccccc21)CCC(N)=O ... > 320 µM

input: # CC50 lookup, item CCNC(=O)/C=C/[C@H](CCC(N)=O)NC(=O)[C@H](Cc1ccccc1)NC(=O)[C@H](CC(C)C)NC(=O)OCc1ccccc1
output: > 320 µM

input: Same thing, different compound: CC(C)C[C@H](NC(=O)OCc1ccccc1)C(=O)N[C@@H](Cc1ccccc1)C(=O)N[C@H](/C=C/C(=O)N1CCc2cc(F)ccc21)CCC(N)=O
output: > 320 µM

input: Same thing, different compound: COC(=O)/C=C\[C@H](CCC(N)=O)NC(=O)[C@H](Cc1ccccc1)NC(=O)[C@H](CC(C)C)NC(=O)OCc1ccccc1
output: > 320 µM

input: Same thing, different compound: CC(C)C[C@H](NC(=O)OCc1ccccc1)C(=O)N[C@@H](Cc1ccccc1)C(=O)N[C@H](/C=C1\CCCOC1=O)CCC(N)=O
output: > 100 µM

input: Same thing, different compound: CC(C)C[C@H](NC(=O)OCc1ccccc1)C(=O)N[C@@H](Cc1ccccc1)C(=O)N[C@H](/C=C/C(=O)N1CCc2cc([N+](=O)[O-])ccc21)CCC(N)=O
output: > 320 µM

input: Same thing, different compound: CC(C)C[C@H](NC(=O)OCc1ccccc1)C(=O)N[C@@H](Cc1ccccc1)C(=O)N[C@H](/C=C/C(=O)N1CCCC1=O)CCC(N)=O
output: > 320 µM

input: Same thing, different compound: CCOC(=O)/C(C)=C/[C@H](CCC(N)=O)NC(=O)[C@H](Cc1ccccc1)NC(=O)[C@H](CC(C)C)NC(=O)OCc1ccccc1
output: > 320 µM

Data provenance is ChEMBL document CHEMBL1131036.
